Entry source: patent US20250382355A1

molecular target: SARS-CoV-2 prefusion-stabilized spike protein (SARS-CoV-2-PreS) (SARS-CoV-2, UniProt P0DTC2 14-1208); assay: ELISA
measurement-name: log10 EC50 (log10 of the value in nM)
Log10 applied to EC50; unit prior to transform: nM.

20D11 VHH-Fc (Fc fusion) QVQLVESGGGLVQAGGSLRLSCAASGRTSSIYSVGWFRQAPGKERELVAGITWSGGTTYYSDSVKGRFTISRDNAKNTVNLQMNNLKPEDTAIYYCAVDRYSMTMSARDYDYWGQGTQVTVSS | -0.21
11F5 VHH-Fc (Fc fusion) QVQLVESGGGAVQAGDSLRLSCTASGRTFSTYAVGWFRQAPGKERELLAAITGSGRNPYYPDSLKGRFTISREYAKLPVYLQMNSLKPEDTAVYYCAARRGAIATMPLDYDHWGQGTQVTVSS | -0.92
15H1 VHH-Fc (Fc fusion) QVQLVESGGGLAQAGGSLRLSCASSGLIFSGSAMGWFRQAPGKEREFVGVISWNGRTTYADSVKGRFTISRDDAVNMVWLQMNNLKPEDTAVYYCAADHLNYGSGDVNPRTYDYWGQGTQVTVSS | -0.85
1E4 VHH-Fc (Fc fusion) QVLLVESGGGLVQAGGLLRLACSASGRTFTENVMGWFRQAPGKEREFVAAINWNTGSTYYSDSRKGRFTISKDNAKNTMFLQINNLKPEDTAVYYCGGTSSSYYYIGEFIPDYWGQGTQVTVSS | -1.40
16H7 VHH-Fc (Fc fusion) QVQLVESGGGLVQAGGSLRLSCAASGRAFSKDTMGWFRQAPGKEREFVAVISASGDSTYYADFVKGRFTISRDNAKNTEYLQMNSLKPEDTAVYHCAADGARAYYSINAHRYSWAYNYWGQGTQVTVSS | -1.10
5D7 VHH-Fc (Fc fusion) QVQLVESGGGLVQAGGSLRLSCAASGRTGSRYIMGWFRQAPGKEREFVAAINWRGDSTYYADSVKGRFTIARDNAKNTAYLQMNSLKPEDTAVYYCVADRGESYYYTRSTEYTYWGQGTQVTVSS | -0.96

[ask] I would be grateful if you could share the reported log10 EC50 for 6A1 VHH-Fc (Fc fusion) QVQLVESGGGLVQAGGSLRLSCTASGNIFSVNVMGWHRQAPGKRRELVAALTNDGRRNYADSVKGRFTISRDNAKNTIYLEMNSLKPEDTAVYYCGTGTLESGFNSWGQGLQVTVSS .
[reply] -0.36

[ask] Next: 19C10 VHH-Fc (Fc fusion) QVQLVESGGGLVQPGGSLRLSCAASGFTLDLNSIGWFRQAPGKEREGVSCISPSASSTHYADSVKGRFTISRDNAKNTVYLQMNSLKPEDTAVYYCATGTPSYHYCSMYGLEYDDWGQGTQVTVSS
[reply] -1.22

[ask] Next: 13C8 VHH-Fc (Fc fusion) QVQLVESGGGLVQAGGSLRLSCAASGRTVNKYMTGWFRQTPGKEREFVASIDWSSTTTHYANSVKGRFTISRDKVKNTVYLQMNGLKPEDTAVYYCAAHQDSSYGYTILPIDYDSWGQGTQVTVSS
[reply] -1.05

[ask] Next: 14F3 VHH-Fc (Fc fusion) QVQLVESGGGLVQAGGSLRLSCAASGRTSSIYGVGWFRQAPGKERELVALITWSGGTTYYSDSVKGRFTISKDNAKNTVFLQMNNLKPEDTAIYYCAVDTYSMTMSARDYEYWGQGTQVTVSS
[reply] -1.30
